// data source = ChEMBL document CHEMBL1212808

tested.on: Phosphatidylinositol 4,5-bisphosphate 3-kinase catalytic subunit gamma isoform (Homo sapiens)
Sequence (P48736 whole entry, canonical isoform): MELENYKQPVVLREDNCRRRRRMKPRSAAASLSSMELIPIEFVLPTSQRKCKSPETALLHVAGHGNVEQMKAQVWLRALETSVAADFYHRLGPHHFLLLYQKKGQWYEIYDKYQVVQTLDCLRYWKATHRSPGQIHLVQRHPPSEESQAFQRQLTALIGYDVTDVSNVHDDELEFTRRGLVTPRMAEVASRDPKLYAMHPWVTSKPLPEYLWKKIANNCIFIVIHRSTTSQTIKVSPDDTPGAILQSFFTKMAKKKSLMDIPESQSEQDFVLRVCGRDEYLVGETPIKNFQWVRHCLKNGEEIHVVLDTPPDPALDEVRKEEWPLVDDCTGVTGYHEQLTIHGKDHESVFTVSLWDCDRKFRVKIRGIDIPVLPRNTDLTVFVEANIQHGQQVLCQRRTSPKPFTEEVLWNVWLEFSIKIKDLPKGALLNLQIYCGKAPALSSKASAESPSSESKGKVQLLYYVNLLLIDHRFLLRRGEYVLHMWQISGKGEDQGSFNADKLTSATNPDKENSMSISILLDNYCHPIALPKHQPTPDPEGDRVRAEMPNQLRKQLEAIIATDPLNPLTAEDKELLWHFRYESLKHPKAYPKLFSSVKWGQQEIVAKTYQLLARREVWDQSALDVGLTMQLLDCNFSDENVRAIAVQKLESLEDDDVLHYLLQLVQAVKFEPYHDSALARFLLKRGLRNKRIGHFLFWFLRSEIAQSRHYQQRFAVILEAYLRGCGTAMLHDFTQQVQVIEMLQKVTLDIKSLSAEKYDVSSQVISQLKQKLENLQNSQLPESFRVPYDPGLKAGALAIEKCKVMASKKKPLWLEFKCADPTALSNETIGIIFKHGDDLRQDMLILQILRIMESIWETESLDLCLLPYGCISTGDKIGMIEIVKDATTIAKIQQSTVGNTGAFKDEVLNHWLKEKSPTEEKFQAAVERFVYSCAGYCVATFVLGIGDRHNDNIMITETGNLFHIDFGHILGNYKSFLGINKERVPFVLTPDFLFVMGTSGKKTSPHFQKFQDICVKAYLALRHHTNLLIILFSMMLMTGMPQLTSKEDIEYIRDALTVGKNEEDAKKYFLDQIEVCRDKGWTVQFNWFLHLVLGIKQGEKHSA
assay.overview: Inhibition of p110gamma
I'd appreciate it if you could supply log10 IC50 values for the items below.
Note the log scale: values are log10 of IC50 expressed in nM.

Challenge: Look up and state reported log10 IC50 for CC(=O)Nc1nc2ccc(-c3nn(Cc4cc5ccccc5nc4N4CCN(C)CC4)c4ncnc(N)c34)cc2s1
Response given: 2.27

Challenge: State its log10 IC50 for this compound: CC(C)n1nc(C#Cc2cccc(O)c2)c2c(N)ncnc21
Response given: 1.84

Challenge: Could you please provide reported log10 IC50 for COc1ccccc1-n1c(SCC(=O)Nc2ccc3nccnc3c2)nc2c(c1=O)CCCC2 ? Thanks!
Response given: 4.30

Challenge: Look up and report measured log10 IC50 for this entry: CC(C)n1nc(C#Cc2cccnc2)c2c(N)ncnc21
Response given: 2.05

Challenge: Note log10 IC50 for the compound shown: COc1cc(Nc2nc3ccccc3nc2NS(=O)(=O)c2ccc(F)cc2)cc(OC)c1
Response given: 4.00

Challenge: Provide only the value of recorded log10 IC50 for CN1CCN(c2nc3ccccc3cc2Cn2nc(-c3ccc4nc(N)sc4c3)c3c(N)ncnc32)CC1
Response given: 0.60

###

Give log10 IC50 for every item shown.
tested.on: Phosphatidylinositol 4,5-bisphosphate 3-kinase catalytic subunit beta isoform (Homo sapiens, UniProt P42338)
Sequence (P42338 whole entry, canonical isoform): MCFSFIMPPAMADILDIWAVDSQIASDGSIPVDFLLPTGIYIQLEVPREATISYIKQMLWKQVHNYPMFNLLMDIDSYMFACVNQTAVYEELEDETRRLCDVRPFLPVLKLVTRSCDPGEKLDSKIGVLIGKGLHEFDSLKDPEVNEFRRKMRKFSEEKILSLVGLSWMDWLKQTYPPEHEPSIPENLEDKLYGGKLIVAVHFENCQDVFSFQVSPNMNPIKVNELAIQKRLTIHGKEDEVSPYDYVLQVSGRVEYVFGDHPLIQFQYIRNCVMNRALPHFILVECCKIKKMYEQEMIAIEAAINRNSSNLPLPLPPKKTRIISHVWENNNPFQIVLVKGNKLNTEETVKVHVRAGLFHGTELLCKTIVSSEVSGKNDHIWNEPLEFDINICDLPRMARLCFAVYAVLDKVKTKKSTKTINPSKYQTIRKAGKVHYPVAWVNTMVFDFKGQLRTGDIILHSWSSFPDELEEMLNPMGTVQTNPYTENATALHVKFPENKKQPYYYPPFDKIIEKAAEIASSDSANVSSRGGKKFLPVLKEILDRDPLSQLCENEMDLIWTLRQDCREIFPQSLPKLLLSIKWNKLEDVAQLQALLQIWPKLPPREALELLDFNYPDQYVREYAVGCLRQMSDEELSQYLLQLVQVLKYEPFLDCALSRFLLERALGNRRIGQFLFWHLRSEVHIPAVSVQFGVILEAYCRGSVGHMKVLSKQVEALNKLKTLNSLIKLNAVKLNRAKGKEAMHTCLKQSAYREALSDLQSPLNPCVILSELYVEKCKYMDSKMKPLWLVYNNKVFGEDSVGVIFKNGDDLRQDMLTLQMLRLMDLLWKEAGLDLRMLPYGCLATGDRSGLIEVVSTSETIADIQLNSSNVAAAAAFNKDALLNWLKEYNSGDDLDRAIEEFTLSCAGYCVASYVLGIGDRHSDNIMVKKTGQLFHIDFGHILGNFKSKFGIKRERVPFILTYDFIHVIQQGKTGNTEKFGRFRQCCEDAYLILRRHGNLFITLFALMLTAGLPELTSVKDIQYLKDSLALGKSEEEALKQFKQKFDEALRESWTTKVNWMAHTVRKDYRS
assay.overview: Inhibition of p110beta
All values: log10 IC50 [nM].

Challenge: Supply measured log10 IC50 of CN1CCN(c2nc3ccccc3cc2Cn2nc(-c3ccc4nc(N)sc4c3)c3c(N)ncnc32)CC1 in your reply.
Response given: 0.95

Challenge: Fill in reported log10 IC50 for this entry: CC(=O)Nc1nc2ccc(-c3nn(Cc4cc5ccccc5nc4N4CCN(C)CC4)c4ncnc(N)c34)cc2s1
Response given: 1.36

Challenge: Fill in reported log10 IC50 for this entry: COc1ccccc1-n1c(SCC(=O)Nc2ccc3nccnc3c2)nc2c(c1=O)CCCC2
Response given: 3.63

Challenge: Report log10 IC50, nothing else, for this compound: CC(C)n1nc(C#Cc2cccc(O)c2)c2c(N)ncnc21
Response given: 2.50

Challenge: Respond only with log10 IC50 recorded for CC(C)n1nc(C#Cc2cccnc2)c2c(N)ncnc21
Response given: 2.82

Challenge: Using the record for COc1cc(Nc2nc3ccccc3nc2NS(=O)(=O)c2ccc(F)cc2)cc(OC)c1 , state its measured log10 IC50.
Response given: 4.00
